B1: HDV Ribozyme (parent)
chain: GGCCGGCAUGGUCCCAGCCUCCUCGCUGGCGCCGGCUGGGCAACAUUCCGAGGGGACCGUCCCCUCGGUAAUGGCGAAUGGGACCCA

Variants of: B1
Test: self-cleavage, relative activity (ratio to wild type); higher = more cleavage; co-transcriptional
measure_name: self-cleavage

>>> endpoint_value("GGCCGGCAUGGUCCCAGCCUCCUCGCUGGCGCCGGCUGGGCAACAUUCCGACGGGACCGUCCCCUCGGUAAUGGCGCAUGGGACCCA [G52C A77C]")
0.403
>>> endpoint_value("GGCCGACAUGGUCCCAGCCUCUUCGCUGGCGCCGGCUGGGCAACAUUCCGAGGGGACCGUCCCCUCGGUAAUGGCGAAUGGGACCCA [G6A C22U]")
0.4
>>> endpoint_value("GGCCGGUAUGGUCCCAGCCUCCUCGCCGGCGCCGGCUGGGCAACAUUCCGAGGGGACCGUCCCCUCGGUAAUGGCGAAUGGGACCCA [C7U U27C]")
0.404

Reference source for all entries: the RNAGym collection of RNA variant scans (doi:10.7554/elife.80360)
